Below: a set of entries, each annotated with reported TGI.
Tested on: RPMI-8226 leukemia
Test: NCI tumour cell line growth inhibition, 48 h
Use µM as the unit, but write only the number.

mol=CC(=O)N1CCN(CCOc2ccc(C3CCN(C4=Nn5c(nnc5C(F)(F)F)CC4)CC3)cc2)CC1 assay_metric=TGI recorded_number=79.7

We now examine a further molecule.
stdin: Look up TGI of Brc1cccc[n+]1-c1ccc2cc(-[n+]3ccccc3Br)ccc2c1 and report it.
stdout: 63.8

---

Test system: OVCAR-4 ovarian
Experiment: NCI tumour cell line growth inhibition, 48 h
assay metric: TGI

Example entries begin here.
molecule=Cc1cccc(NC2=NCCO2)c1Cl result="> 100 µM"
molecule=COc1ccccc1NCC(=O)Nn1c(C)nc2ccc(S(=O)(=O)Nc3ccccc3OC)cc2c1=O result="> 100 µM"
molecule=C1CC[N-]CC1.CC(=N\O)/C(C)=N/O.CC(=N\O)/C(C)=N/O.[CH2-]CCN1CCOCC1.[Co+2] result="> 100 µM"

stdin: Look up TGI of CCC1(O)CC(OC2CC(N(C)C)C(OC3CC(O)C(OC4CCC(=O)C(C)O4)C(C)O3)C(C)O2)c2c(O)c3c(c(O)c2C1C(=O)OC)C(=O)c1cccc(O)c1C3=O (centres undefined) and report it.
stdout: 0.21 µM

---

Below: a set of entries, each annotated with reported TGI.
System: HT29 colon
Assay: NCI tumour cell line growth inhibition, 48 h

compound=CCOC(=O)CC[C@H](N)C(=O)N[C@H](Cc1ccc(N(CCCl)CCCl)cc1)C(=O)OCC assay_metric=TGI result="13.3 µM"

stdin: Answer briefly: TGI recorded on HT29 colon for COP(C)(=O)C(Cc1c[nH]c2ccccc12)NC(=O)OCc1ccccc1 (stereo not given)
stdout: > 100 µM

stdin: Answer briefly: TGI recorded on HT29 colon for O=C1C[C@H](c2ccc(O)c(O)c2)Oc2cc(O)cc(O)c21
stdout: > 100 µM

stdin: Answer briefly: TGI recorded on HT29 colon for C=C1c2nc3ccccc3n2C=C(c2ccc(OC)cc2)N1c1ccc(OCCN2CCOCC2)cc1
stdout: > 100 µM

stdin: Answer briefly: TGI recorded on HT29 colon for O=C(NCCCCOCC#Cc1ccccc1C#CCS(=O)(=O)c1ccccc1)c1cc2ccccc2[nH]1
stdout: > 50 µM

stdin: Answer briefly: TGI recorded on HT29 colon for CCCCCCCCCCCCCCCCP(=O)([O-])OCC[N+](C)(C)C
stdout: 25.5 µM

stdin: Answer briefly: TGI recorded on HT29 colon for CC1(C)c2ccccc2C(O)C12CCC(=O)CC2 (stereo not given)
stdout: > 100 µM

stdin: Answer briefly: TGI recorded on HT29 colon for C=CC1(c2ccc(OC)cc2)OCCCO1
stdout: > 100 µM

stdin: Answer briefly: TGI recorded on HT29 colon for CCN(CC)CCNc1ccc2ncn3c4cc(=O)ccc4c(O)c1c23
stdout: 11.5 µM

stdin: Answer briefly: TGI recorded on HT29 colon for Cc1cc(O)c(C(c2ccncc2)c2c(O)cc(C)[nH]c2=O)c(=O)[nH]1
stdout: > 100 µM

---

Test system: MDA-N
Assay: NCI tumour cell line growth inhibition, 48 h
Below: a set of entries, each annotated with reported TGI.

compound=Cc1cc(O)cc2c1c(=O)c1ccccc1n2C assay_metric=TGI result="> 100 µM"
compound=NCCCC[C@H](N)C(=O)Nc1ccc(-c2nc3ccccc3s2)cc1Cl assay_metric=TGI result="9.36 µM"

stdin: Look up TGI of CC1(C)CC2C(C1=O)C1(C)CCCC2(C)C1=O (stereo not given) and report it.
stdout: > 100 µM

stdin: Look up TGI of O=C1OC(=O)C2C1C(c1ccccc1[N+](=O)[O-])C=C(c1ccco1)N2c1ccncc1 (stereo not given) and report it.
stdout: 18.8 µM
